- Assay System: SpBzz1-D1
- Experimental Protocol: SPOT peptide array binding signal intensity (averaged, normalized) (arbitrary units (background-subtracted, floor 0; scale differs between SH3 domains)); higher = stronger binding of the SH3 domain to the peptide
Use True when the recorded SPOT peptide array binding signal intensity is no lower than 300; use False when it is lower.

Worked examples, 5 binders total:
binder=PPIPIVPSSPAPPLP class_assignment=False
binder=RPPRPPPKPLHLRTE class_assignment=True
binder=NMLKKKPLKKPLKRF class_assignment=False
binder=KIRRSSLMIPNPQQF class_assignment=True
binder=SNRRPVPRRPSQPLN class_assignment=True

In the following, a different binder is considered.
Kindly determine if SPOT peptide array binding signal intensity recorded for `PIVPSSPAPPLPLSG` is above or exactly 300.
False
